Tested on: KM12 colon
Assay: NCI-60 one-dose screen, 48 h
Details: 10 µM unless noted
Compounds without any hit were thinned out: in the full panel of roughly 83,000, 20% have a hit. The source made the active and inactive calls. The calls were made as follows: active = growth percent below 10; inactive = the rest.
Please state which outcome applies, choosing from active, inactive

As a guide, the following entries are already answered.
[[record]]
compound_structure_string = "NS(=O)(=O)c1ccc(Nc2nc(N/N=C/c3ccc4c(c3)OCO4)nc(Nc3ccccc3)n2)cc1"
category_label = "inactive"

[[record]]
compound_structure_string = "CN1CCN(Cc2ccc(NC(=O)c3cncc(C#Cc4cnc5ccc(N)nn45)c3)cc2C(F)(F)F)CC1"
category_label = "active"

[[record]]
compound_structure_string = "CNC(=O)Nc1ccc(Nc2cc(-c3ccc(-n4cccn4)cc3)[nH]n2)c(C)c1"
category_label = "inactive"

[[record]]
compound_structure_string = "C#C[C@]1(O)CC[C@H]2[C@@H]3CC=C4c5sc(Nc6cc(C)cc(C)c6)nc5CC[C@]4(C)[C@H]3CC[C@@]21C"
category_label = "active"

[[record]]
compound_structure_string = "COC(=O)c1ccc(NC2=C(Cl)C(=O)c3nc(C)ccc3C2=O)cc1"
category_label = "inactive"

[[record]]
compound_structure_string = "CN1CCN(c2ccc(Nc3nc(NCCNS(=O)(=O)c4ccc(Cl)cc4)c4sccc4n3)cc2)CC1"
category_label = "inactive"


// query Tell me the assay call for `CC(C)(C)Nc1nc2c(OCCc3ccccc3)cccn2c1-c1ccc([N+](=O)[O-])cc1` please.
// result inactive

// query What classification did `Cc1ccc(/C=N/Nc2nc(Nc3ccccc3)nc(Nc3ccc(S(N)(=O)=O)cc3)n2)cc1` end up with in this test?
// result inactive

// query Dear colleague, could you share the recorded outcome for `O=C(CCCCCCNC(=O)C(O)(O)C(F)(F)F)Nc1ncc(-c2ccccc2)s1` when you have a moment?
// result active

---

Test system: A549/ATCC NSCLC
Assay: NCI-60 one-dose screen, 48 h
Conditions: 10 µM unless noted
The panel holds about 83,000 compounds, 20% with a hit somewhere; the sample as a whole holds those more often. The source made the active and inactive calls. The calls were made as follows: active = growth percent below 10; inactive = the rest.
The reply should name one outcome from label 1 = active, label 0 = inactive

[[record]]
molecule = "CCC1=Cc2c(OC)cccc2OC12C=Cc1c(OC)cccc1O2 (stereo not given)"
category_label = "label 0"

[[record]]
molecule = "COc1ccc(-c2c(C(N)=O)c(N)n(Cc3nc4ccccc4[nH]3)c(=O)c2C#N)c(OC)c1"
category_label = "label 0"

[[record]]
molecule = "COc1ccc(C(=NNS(=O)(=O)c2ccc(C)cc2)c2ccccc2)cc1OC"
category_label = "label 0"


// query Which outcome was entered for the molecule `O=[N+]([O-])c1ccc(NC(=S)NNC(=S)Nc2ccc(F)cc2)cc1` in this test?
// result label 0

// query Assay result, entry `C#Cc1nc(/C=C/C(=O)NO)cs1` — outcome?
// result label 0

// query What classification did `O=C(N/N=C\c1ccc([N+](=O)[O-])cc1)c1ccc2nc(-c3ccc(Br)cc3)[nH]c2c1` end up with in this test?
// result label 0

// query Returns: the outcome recorded for `O=C1[C@@H]2Cc3c([nH]c4ccccc34)[C@@H](c3ccc(Cl)cc3)N2C(=O)CN1C1CCN(Cc2ccccc2)CC1` in this assay.
// result label 0

// query State the result this test recorded for `CSc1ccc(/C(=N/N=C(N)N)c2ccc(Cl)cc2)cc1` .
// result label 1

// query I'd appreciate the recorded outcome for `COc1cc(C(=O)c2cc(C(C)=O)c3c(C)cccn23)cc(OC)c1OC` from this test.
// result label 0

// query How did this test come out for `CCNC(=O)Oc1ccc(/C(=C(/C)c2ccc(Cl)cc2)c2ccc(OCCN3CCCCCC3)cc2)cc1` ?
// result label 0

---

Tested on: LOX IMVI melanoma
Test: NCI-60 one-dose screen, 48 h (100 = growth as untreated, 0 = no growth, -100 = all killed)
Settings: 10 µM unless noted
Compounds without any hit were thinned out: in the full panel of roughly 83,000, 20% have a hit.
Hi there, I'd appreciate the recorded growth for every entry that follows.
Give bare numbers, in %.

[[record]]
compound_structure_string = "N#Cc1c(-c2ccc(F)cc2)cc(-c2c[nH]c3ccccc23)nc1-c1c[nH]c2ccccc12"
recorded_measurement = 107

[[record]]
compound_structure_string = "C#Cc1nc(/C=C/C(=O)NO)cs1"
recorded_measurement = -90.7

[[record]]
compound_structure_string = "COc1ccc(NC(=O)CCCCCCNC(=O)C(O)(O)C(F)(F)F)cc1"
recorded_measurement = 35.2

[[record]]
compound_structure_string = "CCNC(=O)Oc1ccc(/C(=C(/C)c2ccc(OC)cc2)c2ccc(OCCN3CCCCCC3)cc2)cc1"
recorded_measurement = -6.62

[[record]]
compound_structure_string = "NS(=O)(=O)c1cccc(Nc2nc(SCC(=O)c3ccc(Cl)cc3)nc3c2CCC3)c1"
recorded_measurement = 86.2


For each of the compounds below, note its growth.
1. C#C[C@]1(O)CC[C@H]2[C@@H]3CC=C4c5sc(Nc6ncccc6C)nc5CC[C@]4(C)[C@H]3CC[C@@]21C
2. CN1CCN(c2ccc(C(=O)/C=C/c3cc(F)cc(C(F)(F)F)c3)cc2)CC1
3. CN1CCN(Cc2ccc(/C=N/Nc3ccnc4cc(Cl)ccc34)cc2)CC1
4. COc1cc(NC(=O)Nc2cccc(-c3cc(=O)c4c(OC)c(OC)c(OC)cc4o3)c2)cc(OC)c1OC

// result
1: -78; 2: 7.73; 3: 15.3; 4: 24.7

---

Test system: NCI-H226 lung
Test: NCI-60 one-dose screen, 48 h (100 = growth as untreated, 0 = no growth, -100 = all killed)
Settings: 10 µM unless noted
This is part of a sample that, as a whole, favours compounds with a hit. Of some 83,000 tested, about 20% had one in any assay. Active and inactive are the calls of the source. Rule for the calls: active = growth percent below 10; inactive = the rest.
OBSERVATION_TYPE: growth

Please review the following examples before continuing.
[[record]]
compound = "Cc1csc(/N=C(N)/N=C(\\N)c2cccc(C#N)c2)n1"
observation_type = "growth"
recorded_measurement = "86.5% (inactive)"

[[record]]
compound = "Clc1ccc(CSc2nnc(-c3ccc(Cl)cc3)n2-c2ccccc2)cc1"
observation_type = "growth"
recorded_measurement = "46.1% (inactive)"

[[record]]
compound = "CCCCc1nc2c(N)nc3ccccc3c2n1Cc1ccc(OC)cc1"
observation_type = "growth"
recorded_measurement = "73.3% (inactive)"

[[record]]
compound = "COc1ccc2c(c1)C=CC1(O2)Oc2ccc(OC)cc2C=C1C (stereo not drawn)"
observation_type = "growth"
recorded_measurement = "57.4% (inactive)"


Need growth for each of these compounds.
1. O=c1[nH][nH]c(-c2ccc(F)cc2)c1-c1nc2ccccc2s1
2. N#Cc1c(-c2cccs2)cc(-c2cnccn2)nc1SCC(=O)N/N=C/c1ccc(Cl)cc1
3. CC(Nc1ncnc2ccc(-c3cnc(N)nc3)cc12)c1ccccc1 (stereo not drawn)
4. Oc1ccc(-c2nc3ccc(/C(=N\N=C\c4ccc(Cl)cc4)c4ccccc4)cc3[nH]2)cc1
5. C#C[C@]1(O)CC[C@H]2[C@@H]3CC=C4c5sc(N6CCN(C)CC6)nc5CC[C@]4(C)[C@H]3CC[C@@]21C
6. C#C[C@]1(O)CC[C@H]2[C@@H]3CC=C4c5sc(Nc6cc(Cl)ccc6OC)nc5CC[C@]4(C)[C@H]3CC[C@@]21C

// result
1: 82.3% (inactive); 2: 98.1% (inactive); 3: 20.6% (inactive); 4: 80.7% (inactive); 5: 86.8% (inactive); 6: 52.4% (inactive)

---

Please respond with reported growth for every item in the list.
System: ACHN renal
Assay: NCI-60 one-dose screen, 48 h (100 = growth as untreated, 0 = no growth, -100 = all killed)
Conditions: 10 µM unless noted
About 83,000 compounds went through this panel and 20% of them were active in at least one assay; those are over-represented in the sample as a whole. The source made the active and inactive calls. How the source made its calls: active means growth percent below 10; inactive means the rest.

Below, each entry is followed by its recorded growth result.
[[record]]
compound = "CC1=C(C)C(=O)C(Nc2ccc3c(c2)OCO3)=C(Br)C1=O"
observation_type = "growth"
recorded_measurement = "100% (inactive)"

[[record]]
compound = "CC(=O)Nc1nc(C)c(-c2csc(Nc3ccccc3)n2)s1"
observation_type = "growth"
recorded_measurement = "17.2% (inactive)"

[[record]]
compound = "N#C/C(=C\\c1cccc2c1OCO2)C(=O)Nc1sc2c(c1C#N)CCCC2"
observation_type = "growth"
recorded_measurement = "109% (inactive)"

[[record]]
compound = "Nc1ccc(Nc2ncnc3sc4c(c23)CCN(Cc2ccccc2)C4)cc1"
observation_type = "growth"
recorded_measurement = "91.7% (inactive)"

[[record]]
compound = "CC(=C(c1ccc(OCCCN(C)C)cc1)c1ccc(OCCCN(C)C)cc1)c1ccc(Cl)cc1"
observation_type = "growth"
recorded_measurement = "92.6% (inactive)"


Below are some compounds; for each one, tell me its growth.
1. COc1ccc(/C=N/NC(=O)CSc2nc(-c3cnccn3)cc(-c3cccs3)c2C#N)cc1
2. O=C(CSc1nnc(-c2cccs2)n1-c1ccccc1)Nc1ccccc1
3. CN(C)c1cccc2c(S(=O)(=O)Nc3cccc(-c4csc(NC(=O)CCCCCN5CCN(CCO)CC5)n4)c3)cccc12

// result
74% (inactive)
59.6% (inactive)
96.9% (inactive)

Below is a list of compounds. For each, state its recorded growth.
1. NNc1nnc2nc(Nc3ccccc3)nc(Nc3ccc(S(N)(=O)=O)cc3)n12
2. O=C1[C@@H]2Cc3c([nH]c4ccccc34)[C@H](c3ccc(Br)cc3)N2C(=O)CN1C1CCN(Cc2c(Cl)cccc2Cl)CC1
3. Clc1ccc2c(N/N=C/c3c[nH]c4ccccc34)ccnc2c1
4. Cc1ccc2c(n1)C(=O)C(Cl)=C(Nc1cccc(C(F)(F)F)c1)C2=O
5. COc1ccc(-c2nc(C#N)c(N3CCC(S(=O)(=O)N4CCOCC4)CC3)o2)cc1
6. C/C(=N\NC(=O)Nc1ccccc1)c1nnn(-c2ccc([N+](=O)[O-])cc2)c1C

// result
["106% (inactive)", "91.2% (inactive)", "-98.1% (active)", "-96.2% (active)", "97.8% (inactive)", "104% (inactive)"]
